test system: L1210 leukemia ip in BDF1 mice, survival T/C; experiment: NCI In Vivo Anticancer Drug Screen. Data for tumor model L1210 Leukemia (intraperitoneal) in B6D2F1 (BDF1) mice; conditions: endpoint: mean survival time; dose: 50.0 mg/kg/injection; schedule: Q04DX003 (ip); vehicle: Klucel (hydroxypropylcellulose) (HPC); higher = longer survival
Toxic doses and inconclusive results are not listed.
List of T/C values.

Query smiles	T/C
Cc1c(C)c2c(Cl)c3ccccc3nc2c2ccccc12	102 % of control
CCSc1ncnc2c1ncn2CN1CCOCC1	100 % of control
S=c1[nH]c2ccc(Cl)cc2s1	106 % of control
CCn1c(Cl)c(C(=O)O)c2ccccc21	97 % of control
